molecular target: Ba/F3 EGFR-Del19/T790M/C797S (Homo sapiens, UniProt P00533, T790M/C797S, cells depend on it, form not given); assay: Ba/F3 viability assay (CellTiter-Glo), BAF3 DTC; type: cell-based; settings: Ba/F3 EGFR-Del19/T790M/C797S cell viability
Sequence (P00533 with tags, fused parts or gaps DEL746-750/T790M/C797S, form open): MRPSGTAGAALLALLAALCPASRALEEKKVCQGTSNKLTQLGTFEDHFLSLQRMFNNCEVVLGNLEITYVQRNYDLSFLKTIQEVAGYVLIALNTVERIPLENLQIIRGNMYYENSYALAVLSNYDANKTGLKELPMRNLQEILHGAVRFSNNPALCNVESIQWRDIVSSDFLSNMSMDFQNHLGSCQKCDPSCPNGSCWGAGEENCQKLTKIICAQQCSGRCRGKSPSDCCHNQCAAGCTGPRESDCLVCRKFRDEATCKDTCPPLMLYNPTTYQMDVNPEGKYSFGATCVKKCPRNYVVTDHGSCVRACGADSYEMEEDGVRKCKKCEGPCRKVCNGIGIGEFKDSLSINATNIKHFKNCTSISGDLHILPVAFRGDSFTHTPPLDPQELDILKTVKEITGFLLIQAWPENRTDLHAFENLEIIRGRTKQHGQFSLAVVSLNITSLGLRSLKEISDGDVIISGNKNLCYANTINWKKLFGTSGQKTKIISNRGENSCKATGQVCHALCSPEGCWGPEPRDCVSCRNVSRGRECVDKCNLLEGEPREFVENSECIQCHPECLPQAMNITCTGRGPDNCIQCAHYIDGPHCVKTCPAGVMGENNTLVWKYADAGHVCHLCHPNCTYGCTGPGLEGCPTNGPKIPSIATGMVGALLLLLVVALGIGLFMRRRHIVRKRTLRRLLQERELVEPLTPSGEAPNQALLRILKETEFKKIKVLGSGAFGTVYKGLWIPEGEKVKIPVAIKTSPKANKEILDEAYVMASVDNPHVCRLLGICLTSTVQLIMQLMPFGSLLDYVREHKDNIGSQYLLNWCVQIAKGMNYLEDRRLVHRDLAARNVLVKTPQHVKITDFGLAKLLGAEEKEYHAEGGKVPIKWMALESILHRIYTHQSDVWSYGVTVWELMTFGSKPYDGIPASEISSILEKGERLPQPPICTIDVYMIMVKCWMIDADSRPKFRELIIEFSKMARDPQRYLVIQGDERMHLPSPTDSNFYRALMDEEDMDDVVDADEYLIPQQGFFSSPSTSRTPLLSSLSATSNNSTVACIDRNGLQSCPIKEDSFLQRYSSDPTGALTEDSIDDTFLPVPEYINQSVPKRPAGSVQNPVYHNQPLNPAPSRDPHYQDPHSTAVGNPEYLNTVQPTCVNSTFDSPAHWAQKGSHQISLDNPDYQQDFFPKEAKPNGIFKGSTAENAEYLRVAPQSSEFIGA
experimental endpoint: GI50

(Q) Param item = Cc1cc2cc(n1)-c1cnn(C)c1CCCCCN1/C(=N/C2=O)Nc2ccc(CN3CCN(C)CC3)cc21 ; retrieve measured GI50.
(A) < 50 nM

(Q) Param item = Cc1cc2cc(n1)-c1cnn(C)c1-c1cccc(c1)C(C)CN1/C(=N/C2=O)Nc2ccc(C(=O)N3CCN(C)CC3)cc21 (centres unmarked) ; retrieve measured GI50.
(A) 100 to 1000 nM

(Q) Param item = COc1cc(N2CCN(C)CC2)cc2c1N/C1=N\C(=O)c3cc(C)nc(c3)-c3cnn(C)c3CCC[C@@H](C)CN12 ; retrieve measured GI50.
(A) < 50 nM

(Q) Param item = COc1ccncc1-c1ccc2c(c1)N1C[C@H](C)CCCc3c(cnn3C)-c3cc(cc(C)n3)C(=O)/N=C/1N2 ; retrieve measured GI50.
(A) < 50 nM

(Q) Param item = Cc1ccc(-c2ccc3c(c2)N2C[C@H](C)CCCc4c(cnn4C)-c4cc(cc(C)n4)C(=O)/N=C/2N3)cn1 ; retrieve measured GI50.
(A) < 50 nM

(Q) Param item = Cc1cc2cc(n1)-c1cnn(C)c1CCC[C@@H](C)CN1/C(=N/C2=O)Nc2c(C)cc(N3CCN(C)CC3)cc21 ; retrieve measured GI50.
(A) < 50 nM

(Q) Param item = Cc1cc2cc(n1)-c1cnn(C)c1CCCCCCN1/C(=N/C2=O)Nc2ccc(CN3CCOCC3)cc21 ; retrieve measured GI50.
(A) 100 to 1000 nM

(Q) Param item = Cc1cc2cc(n1)-c1cnn(C)c1CCC[C@@H](C)CN1/C(=N/C2=O)Nc2ccc(CN3CCN(CCF)CC3)cc21 ; retrieve measured GI50.
(A) < 50 nM

(Q) Param item = Cc1cc2cc(n1)-c1cnn(C)c1CCC[C@@H](C)CN1/C(=N/C2=O)Nc2ccc(N3CCC(N4CCOCC4)CC3)cc21 ; retrieve measured GI50.
(A) < 50 nM

(Q) Param item = Cc1cc2cc(n1)-c1cnn(C)c1CCCO[C@@H](C)CN1/C(=N/C2=O)Nc2ccc(CN3CCN(C)CC3)cc21 ; retrieve measured GI50.
(A) 50 to 100 nM

(Q) Param item = Cc1cc2cc(n1)-c1cnn(C)c1CCC[C@@H](C)CN1/C(=N/C2=O)Nc2ccc(N(CCN(C)C)CC3COC3)cc21 ; retrieve measured GI50.
(A) < 50 nM

(Q) Param item = Cc1cc2cc(n1)-c1cnn(C)c1CCCCCCN1/C(=N/C2=O)Nc2ccc(N(C)CCN(C)C)cc21 ; retrieve measured GI50.
(A) < 50 nM

(Q) Param item = Cc1cc2cc(n1)-c1cnn(C)c1CCC[C@@H](C)CN1/C(=N/C2=O)Nc2ccc(N3CCN(C(C)C)CC3)cc21 ; retrieve measured GI50.
(A) < 50 nM

(Q) Param item = Cc1cc2cc(n1)-c1cnn(C)c1-c1cccc(c1)CN1/C(=N/C2=O)Nc2ccc(CN3CCN(C)CC3)cc21 ; retrieve measured GI50.
(A) 100 to 1000 nM

(Q) Param item = Cc1cc2cc(n1)-c1cnn(C)c1CCCCCN1/C(=N/C2=O)Nc2ccc(CN3CCNCC3)cc21 ; retrieve measured GI50.
(A) < 50 nM

(Q) Param item = Cc1cc2cc(n1)-c1cnn(C)c1CCC[C@@H](C)CN1/C(=N/C2=O)Nc2ccc(OC3CCNCC3)cc21 ; retrieve measured GI50.
(A) < 50 nM

(Q) Param item = Cc1cc2cc(n1)-c1cnn(C)c1CCC[C@@H](C)CN1/C(=N/C2=O)Nc2ccc(CN3CCN(C)CC3)cc21 ; retrieve measured GI50.
(A) < 50 nM

(Q) Param item = Cc1cc2cc(n1)-c1cnn(C)c1CCC[C@@H](C)CN1/C(=N/C2=O)Nc2ccc(N3CCC(N4CC[C@H](N(C)C)C4)CC3)cc21 ; retrieve measured GI50.
(A) < 50 nM

(Q) Param item = Cc1cc2cc(n1)-c1cnn(C)c1CCC[C@@H](C)CN1/C(=N/C2=O)Nc2ccc(N3C[C@@H](C)N(C)[C@@H](C)C3)cc21 ; retrieve measured GI50.
(A) < 50 nM

(Q) Param item = Cc1cc2cc(n1)-c1cnn(C)c1CCCCCCN1/C(=N/C2=O)Nc2ccc(CN3CCN(C)CC3)cc21 ; retrieve measured GI50.
(A) < 50 nM
